Here, each record is paired with measured ELISA signal at 12.5 nM Fab data.
molecular target: T1, Recombinant Human DLL4 (delta-like protein 4) (human, UniProt Q9NR61 27-524); assay: ELISA, plate-coated DLL4, Fab 12.5 nM
T1 construct: also called rHuman DLL4

Examples with answers:
binder | ELISA signal at 12.5 nM Fab
Fab VH1-46_IGHD6-6*01_IGHJ1*01 S102A/S103P/S104F/H111F (APFF) & L6_IGKJ1*01 S28N/S30D/S31H (NDH) (Fab, V domains shown, Fab made in E. coli: VH in plasmid A (CH1, His6 and Flag tags), VL in plasmid C (kappa CL); also called H:APFF & L:NDH; APFF / NDH) VH: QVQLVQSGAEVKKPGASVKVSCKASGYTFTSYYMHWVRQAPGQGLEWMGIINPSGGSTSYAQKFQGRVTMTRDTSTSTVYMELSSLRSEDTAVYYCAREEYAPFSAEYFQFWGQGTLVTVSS VL: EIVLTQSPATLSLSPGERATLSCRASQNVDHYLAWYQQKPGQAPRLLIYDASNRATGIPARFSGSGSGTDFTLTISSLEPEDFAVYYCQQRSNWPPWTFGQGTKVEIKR | 0.192
Fab VH1-46_IGHD6-6*01_IGHJ1*01 S102A/S103P/S104F/H111F (APFF) & L6_IGKJ1*01 S28N/S30D/S31H A55G (Fab, V domains shown, Fab made in E. coli: VH in plasmid A (CH1, His6 and Flag tags), VL in plasmid C (kappa CL); also called H:APFF & L:NDH A55G; APFF / NDH/A55G) VH: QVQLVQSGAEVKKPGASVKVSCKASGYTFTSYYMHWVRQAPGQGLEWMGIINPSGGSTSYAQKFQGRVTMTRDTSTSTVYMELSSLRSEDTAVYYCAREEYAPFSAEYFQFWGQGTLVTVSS VL: EIVLTQSPATLSLSPGERATLSCRASQNVDHYLAWYQQKPGQAPRLLIYDASNRGTGIPARFSGSGSGTDFTLTISSLEPEDFAVYYCQQRSNWPPWTFGQGTKVEIKR | 0.198
Fab VH1-46_IGHD6-6*01_IGHJ1*01 S102A/S103P/S104F/H111F (APFF) & L6_IGKJ1*01 S28N/S30D/S31H S52T (Fab, V domains shown, Fab made in E. coli: VH in plasmid A (CH1, His6 and Flag tags), VL in plasmid C (kappa CL); also called H:APFF & L:NDH S52T; APFF / NDH/S52T) VH: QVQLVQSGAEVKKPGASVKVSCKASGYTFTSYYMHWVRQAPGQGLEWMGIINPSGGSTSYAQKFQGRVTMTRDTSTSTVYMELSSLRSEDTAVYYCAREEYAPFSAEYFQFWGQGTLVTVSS VL: EIVLTQSPATLSLSPGERATLSCRASQNVDHYLAWYQQKPGQAPRLLIYDATNRATGIPARFSGSGSGTDFTLTISSLEPEDFAVYYCQQRSNWPPWTFGQGTKVEIKR | 0.215

From here, focus on the item given below.
Entry Fab VH1-46_IGHD6-6*01_IGHJ1*01 S102A/S103P/S104F/H111F (APFF) & L6_IGKJ1*01 S28N/S30D/S31H A55S (Fab, V domains shown, Fab made in E. coli: VH in plasmid A (CH1, His6 and Flag tags), VL in plasmid C (kappa CL); also called H:APFF & L:NDH A55S; APFF / NDH/A55S) VH: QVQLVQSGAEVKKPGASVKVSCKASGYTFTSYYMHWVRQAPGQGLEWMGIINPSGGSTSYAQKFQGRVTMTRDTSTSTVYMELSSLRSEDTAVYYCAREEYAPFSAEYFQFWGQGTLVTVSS VL: EIVLTQSPATLSLSPGERATLSCRASQNVDHYLAWYQQKPGQAPRLLIYDASNRSTGIPARFSGSGSGTDFTLTISSLEPEDFAVYYCQQRSNWPPWTFGQGTKVEIKR : reported ELISA signal at 12.5 nM Fab = ?
0.258
